# Test system: RARb homodimer (NR concentration 270 nM)
# MEASUREMENT_PROTOCOL: PBM binding z-score (relative to random genomic background probes); higher = stronger binding; sequences stand for … in GC…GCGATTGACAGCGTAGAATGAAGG
Class (required): determined from PBM binding z-score; valid ranges are class 1: < 2; class 2: ≥ 2 and < 3; class 3: ≥ 3

Reference set, count: 10
In [3]: df
Out[3]:
                       entry_sequence  classification
0  ACTAGTTGGTCGGCTGAGGTCACACACAATTCGG         class 3
1  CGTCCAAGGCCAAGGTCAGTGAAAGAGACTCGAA         class 3
2  CCGACTGGGGCAAAGGTTACCATCCTCAGTACGA         class 2
3  TAGCCTAGGTCATGGGTCAGTATACCACGCGAAC         class 3
4  CCCAGTAGGTTATGGGGCATTCAGGCAACGGTGA         class 1
5  GCGACTGGGGCATCAGCAGGTTACCAGAACTTAA         class 1
6  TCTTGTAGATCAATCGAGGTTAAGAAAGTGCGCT         class 1
7  TAGCCTAGGTCAGATCGGGCCAATATACGCTATA         class 2
8  CCTACCGGGCCACGAAAGGTCATTGATTCAGTGA         class 3
9  TCTGCTAGGTCAACGATGGTCAGCAAATCTGCTA         class 3

GET /class?item= ATCGAAAGGTCGTGAGGTTAGTATACAGAAAGGC class 3

GET /class?item= ACTAGCAGGCCAAGTTTGGGTCACTCCAACAAAG class 2

GET /class?item= CATGCTAGGTCAATGGTCAGCTAAAGCAGCTCGC class 3

GET /class?item= CGTCCAAGGTCAGAGAGTTCAGTGAATGCCGAGT class 3

GET /class?item= ATCGGAAGGTCGAAGGTGAGTATACCCACCCGAA class 1

GET /class?item= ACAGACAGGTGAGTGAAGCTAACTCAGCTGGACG class 1

GET /class?item= CGTCAGAGTTCAACTAAGGTAACGTAAAGCACGC class 3

---

# Test system: PXR homodimer (NR concentration 270 nM)
# MEASUREMENT_PROTOCOL: PBM binding z-score (relative to random genomic background probes); higher = stronger binding; sequences stand for … in GC…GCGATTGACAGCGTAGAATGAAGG
READOUT_KIND: PBM binding z-score

Here are 2 sequences. What values of PBM binding z-score were reported for them?
1. ACAAGCAGGCCAAGTTTGGGTCACTCAAACAAAG
2. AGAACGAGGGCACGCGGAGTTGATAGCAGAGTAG

1. -0.465
2. -0.14

Here are 2 sequences. What values of PBM binding z-score were reported for them?
1. TCTTGTAGATCAACAGGAGGTTAGGAAAGATCGA
2. GCGACTGGGGCAAAGCAGGATACCATAAGGTTGG

1. -0.275
2. -0.738

Here are 3 sequences. What values of PBM binding z-score were reported for them?
1. TGAATGATGTTATAAGATCAGGGAACGTTGCAAA
2. CGTCAAAGTTCAACTTAGGTAACGTAAAGCACGC
3. GGAACGAGGGCATTCGTGTTGATAGCATGGCGAT

1. -0.193
2. 4.07
3. 0.237

---

# Tested on: RARa homodimer (NR concentration 270 nM)
# MEASUREMENT_PROTOCOL: PBM binding z-score (relative to random genomic background probes); higher = stronger binding; sequences stand for … in GC…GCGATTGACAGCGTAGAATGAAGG
READOUT_KIND: PBM binding z-score
Give bare numbers.

>>> print(df.to_string())
                       entry_sequence                              study_target  experimental_value
0  AGAATGAGGTTACCAAAGATGAGGGAAACGCTTG  RARa homodimer (NR concentration 270 nM)               0.142

Here are 4 sequences. What values of PBM binding z-score were reported for them?
1. TCATGTAGATCAGCAGGTTAAGAAAGCTGGCCAA
2. CCGACTGGAGCATAAGGTTACCATAAGCCAGCCC
3. TCTGCTAGGTCAGTTGGTCAGCTTACGAGCTGCC
4. CAAATTAGGTCAAAGGTCAAAGTCGAGCCAACCA

[-0.0627, 0.0423, -0.758, 3.73]

Here are 2 sequences. What values of PBM binding z-score were reported for them?
1. TCTCGGAGGACACGAAAGGTCAGACCTCGACATC
2. GCAGACAGTTGAAACGCAGGTAACTCAGGGTGGC

1. 1.09
2. -0.512

---

# Test system: PPARg:RXRa (NR concentration 180 nM, RXRa partner concentration 90 nM)
# MEASUREMENT_PROTOCOL: PBM binding z-score (relative to random genomic background probes); higher = stronger binding; sequences stand for … in GC…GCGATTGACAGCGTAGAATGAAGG
Class (required): determined from PBM binding z-score; valid ranges are one = under 0.5, two = from 0.5 up to 2, three = 2 and over

Reference set, count: 2
In [3]: df
Out[3]:
                       entry_sequence  classification
0  CGTCAAAGTTCAAGGTAACCTAACAGAAAGCAGC           three
1  GCTAGTTGGTCAGTATAAGGTCACACACCGGTCG             two

GET /class?item= TCTTGTAGATCAATGGAGGTTAAGAAAGTGCGCT one

GET /class?item= TCATATAAGTAAATGCTAGGTGAAAGTCCGATCT two

GET /class?item= CCTCAGAGGACAGAAGGTCAGAGCTGTCCGCTTT one

GET /class?item= CAAACTAGGTCAGAGGTCAAAGTCGAGCCAACCA three

GET /class?item= TCATACAGGTAATACAGGTGAAAGTCGGCATCTA two

GET /class?item= CAAACTAGGTCACCGGAACGTCAAAGTCCGCATG three

GET /class?item= GCTGCTAGGACAGGTTGGTCAGCTAACGGGTACG one

---

Would you kindly list PBM binding z-score for each of these sequences?
# Test system: LXRb homodimer (NR concentration 270 nM)
# MEASUREMENT_PROTOCOL: PBM binding z-score (relative to random genomic background probes); higher = stronger binding; sequences stand for … in GC…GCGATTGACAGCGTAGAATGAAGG
Give bare numbers.

                       entry_sequence         readout_kind  experimental_value
0  GCGCGGAGGACAAGGTCAGAGCTTTGTCCGTAGA  PBM binding z-score               -1.25

Here are 2 sequences. What values of PBM binding z-score were reported for them?
1. ACTAGCAGGACAAGTTTGGGTCACTCAAACAAAG
2. ACTGTTAGTTGACTTAGGGCAACCGATACGACGC

[-0.0447, 1.15]

Here are 4 sequences. What values of PBM binding z-score were reported for them?
1. ACATGTAGGTTATCGGGTCATTCAGTTTGCGCAT
2. GATACAGTGTCAAGGCCAGAGTACGCGTATTGAT
3. CGAACGAGGGCATGATTTGATAGCAAATGCCGAT
4. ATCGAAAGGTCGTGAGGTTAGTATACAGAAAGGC

1. 1.7
2. -0.421
3. -0.66
4. 0.777

---

# System: LXRa homodimer (NR concentration 270 nM)
# MEASUREMENT_PROTOCOL: PBM binding z-score (relative to random genomic background probes); higher = stronger binding; sequences stand for … in GC…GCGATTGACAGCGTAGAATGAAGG
Would you kindly list PBM binding z-score for each of these sequences?

Below, 5 sequences whose answers are already recorded.
In [3]: df
Out[3]:
                       entry_sequence  experimental_value
0  CCTACTGGGCCCTCAGGTCATTGATATCAACGTT               0.835
1  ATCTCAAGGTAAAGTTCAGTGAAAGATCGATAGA                 1.5
2  CCGACTGGGGCAAATGTTACCATACTCAGTACGA              0.0319
3  ATCTCTAGGTAAATTTCAGTGAAAGATCGATAGA               0.359
4  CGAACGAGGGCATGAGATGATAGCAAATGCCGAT              0.0308

Here are 5 sequences. What values of PBM binding z-score were reported for them?
1. TCATATAAGTAAAGGTGAAAGTCGAACGATATGA
2. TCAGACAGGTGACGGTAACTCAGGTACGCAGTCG
3. GCTAGTTGGTAAGTAAAAGGTCACACACCGGTCG
4. GCGACTGGGGCATCAGCAGGTTACCGTAACTTAA
5. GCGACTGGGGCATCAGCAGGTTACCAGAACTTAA

[-0.151, -0.354, 4.45, -0.365, -0.341]

Here are 3 sequences. What values of PBM binding z-score were reported for them?
1. CCTCGGAGGACAGAAGGTCAGAGCAGTCCGCTTT
2. CCTTACGCGTCACTGACAGGTTATAGCATTTGGA
3. CGACAAAGTTCAAGGTAACGTAACAGAAAGCAGC

1: 0.116; 2: 0.568; 3: 1.97
